EXPERIMENT DESCRIPTION: Probe calibration by titration with FFA / FFA-BSA complexes: MA
Assay type: binding
CONDITION DETAILS: equilibrium dissociation constant of probe for MA
Below, each entry is listed with its recorded Kd.
// note: answer is a bare numeric in nM

>  <MOLECULE>
L11P7 B3 V26C: acrylodan-labeled mutant FABP probe: M21F, V26C, L72A, L78V, L102V (protein, UniProt P02693 2-132, looked up, variant M21F V26C L72A L78V L102V, acrylodan label, acrylodan-labeled mutant FABP probe: M21F, V26C, L72A, L78V, L102V) Fatty acid-binding protein, …: AFDGTWKVDRNENYEKFMEKFGINVCKRKLGAHDNLKLTITQEGNKFTVKESSNFRNIDVVFELGVDFAYSAADGTEVTGTWTMEGNKLVGKFKRVDNGKEVIAVREISGNELIQTYTYEGVEAKRIFKKE

>  <MEASURED PARAMETER>
Kd

>  <READING>
18.8

$$$$

Which Kd is listed for ADIFAB2: acrylodan-labeled (lysine 27) mutant FABP probe: L72A (protein, UniProt P02693 2-132, looked up, variant L72A, acrylodan label on K27, acrylodan-labeled (lysine 27) mutant FABP probe: L72A) Fatty acid-binding protein, …: AFDGTWKVDRNENYEKFMEKMGINVVKRKLGAHDNLKLTITQEGNKFTVKESSNFRNIDVVFELGVDFAYSAADGTELTGTWTMEGNKLVGKFKRVDNGKELIAVREISGNELIQTYTYEGVEAKRIFKKE ? 324

How about this molecule: L10P7 A4 L30C: acrylodan-labeled mutant FABP probe: Y14L, M18L, K27A, L30C, G31Y, A73L, Y117A (protein, UniProt P02693 2-132, looked up, variant Y14L M18L K27A L30C G31Y A73L Y117A, acrylodan label, acrylodan-labeled mutant FABP probe: Y14L, M18L, K27A, L30C, G31Y, A73L, Y117A) Fatty acid-binding protein, …: AFDGTWKVDRNENLEKFLEKMGINVVARKCYAHDNLKLTITQEGNKFTVKESSNFRNIDVVFELGVDFAYSLLDGTELTGTWTMEGNKLVGKFKRVDNGKELIAVREISGNELIQTATYEGVEAKRIFKKE 15.4

How about this molecule: L2P22 G6: acrylodan-labeled mutant FABP probe: M18I, G31Y, A73G (protein, UniProt P02693 2-132, looked up, variant M18I G31Y A73G, acrylodan label, acrylodan-labeled mutant FABP probe: M18I, G31Y, A73G) Fatty acid-binding protein, …: AFDGTWKVDRNENYEKFIEKMGINVVKRKLYAHDNLKLTITQEGNKFTVKESSNFRNIDVVFELGVDFAYSLGDGTELTGTWTMEGNKLVGKFKRVDNGKELIAVREISGNELIQTYTYEGVEAKRIFKKE 47.8

How about this molecule: L1P8 H2: acrylodan-labeled mutant FABP probe: Y14M, L38M, L72W (protein, UniProt P02693 2-132, looked up, variant Y14M L38M L72W, acrylodan label, acrylodan-labeled mutant FABP probe: Y14M, L38M, L72W) Fatty acid-binding protein, …: AFDGTWKVDRNENMEKFMEKMGINVVKRKLGAHDNLKMTITQEGNKFTVKESSNFRNIDVVFELGVDFAYSWADGTELTGTWTMEGNKLVGKFKRVDNGKELIAVREISGNELIQTYTYEGVEAKRIFKKE 299

Reference source for all entries: patent US10705101B2
